target: Genome polyprotein (West Nile virus); test: Inhibition of WNV recombinant NS2B-NS3 protease
Non-standard residues stand in square brackets, D forms with d. Residues, ends and D or L forms follow the SMILES beside them. *: point of attachment. Cit = NC(=O)NCCC[C@H](N)C(=O)O; 2Abz = Nc1ccccc1C(=O)O; PhAc = O=C(Cc1ccccc1)*
# reported pKi; entries follow
// pKi here means minus log10 of the molar concentration (mol/L)

Study these solved cases before continuing.
{"columns": ["molecule", "pKi"],
 "data": [
  ["N=C(N)NCCC[C@@H](C=O)NC(=O)[C@H](CCCNC(=N)N)NC(=O)[C@H](CCCCN)NC(=O)Cc1ccccc1 (PhAc-Lys-Arg-Arg-aldehyde)", 7.24],
  ["N=C(N)NCCC[C@@H](C=O)NC(=O)[C@H](CCCCN)NC(=O)[C@H](CCCCN)NC(=O)Cc1ccc(-c2ccccc2)cc1", 8.22],
  ["NCCCC[C@H](NC(=O)c1ccc2ccccc2c1)C(=O)N[C@@H](CCCCN)C(=O)N[C@H](C=O)CCCN=C(N)N", 7.39],
  ["N=C(N)NCCC[C@@H](C=O)NC(=O)[C@H](CCCCN)NC(=O)[C@H](CCCCN)NC(=O)c1ccccc1N (H-[2Abz]KKR-aldehyde)", 6.80]
]}

Now look at this entry.
// query pKi value for entry N=C(N)NCCC[C@@H](C=O)NC(=O)[C@H](CCCCN)NC(=O)[C@H](CCCNC(N)=O)NC(=O)Cc1ccccc1 (PhAc-[Cit]-Lys-Arg-aldehyde) 6.95

----------
molecular target: Genome polyprotein (West Nile virus, UniProt P06935); assay: Inhibition of WNV recombinant NS2B-NS3 protease
Sequence (P06935 1371-1501 limits assumed): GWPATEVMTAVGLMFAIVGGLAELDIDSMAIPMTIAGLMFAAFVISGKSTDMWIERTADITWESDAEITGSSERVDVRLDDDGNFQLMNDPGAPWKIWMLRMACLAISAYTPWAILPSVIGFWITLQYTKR
Sequence (P06935 1502-2120 limits assumed): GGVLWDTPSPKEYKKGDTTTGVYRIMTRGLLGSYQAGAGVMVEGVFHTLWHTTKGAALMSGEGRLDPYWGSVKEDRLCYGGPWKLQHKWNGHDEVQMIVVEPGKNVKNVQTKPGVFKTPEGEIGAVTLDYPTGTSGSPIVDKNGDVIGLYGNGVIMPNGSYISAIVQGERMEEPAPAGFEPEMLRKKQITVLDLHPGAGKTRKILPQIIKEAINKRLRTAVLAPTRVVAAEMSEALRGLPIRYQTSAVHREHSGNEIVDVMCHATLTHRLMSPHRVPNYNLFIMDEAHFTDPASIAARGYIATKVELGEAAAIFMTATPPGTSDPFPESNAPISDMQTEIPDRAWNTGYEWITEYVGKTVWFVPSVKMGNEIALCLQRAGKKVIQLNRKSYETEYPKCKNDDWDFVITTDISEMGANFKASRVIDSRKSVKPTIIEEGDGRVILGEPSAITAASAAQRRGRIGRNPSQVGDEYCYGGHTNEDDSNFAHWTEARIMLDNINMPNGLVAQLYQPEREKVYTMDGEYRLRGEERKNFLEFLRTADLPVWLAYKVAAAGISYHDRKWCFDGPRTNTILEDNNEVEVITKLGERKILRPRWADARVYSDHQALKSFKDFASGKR
Non-standard residues stand in square brackets, D forms with d. Residues, ends and D or L forms follow the SMILES beside them. *: point of attachment. Cit = NC(=O)NCCC[C@H](N)C(=O)O; 2Abz = Nc1ccccc1C(=O)O; PhAc = O=C(Cc1ccccc1)*
// values below are reported IC50
Return type: number; implicit unit nM.

{"columns": ["compound", "targetOrTestSystem", "assayResult"],
 "data": [
  ["NCCCC[C@H](NC(=O)Cc1ccccc1)C(=O)N[C@@H](CCCCN)C(=O)N[C@H](C=O)CCCN=C(N)N (PhAc-Lys-Lys-Arg-aldehyde)", "Genome polyprotein (West Nile virus, UniProt P06935)", 51],
  ["NCCCC[C@H](NC(=O)[C@H](CCCN=C(N)N)NC(=O)Cc1ccccc1)C(=O)N[C@H](C=O)CCCN=C(N)N (PhAc-Arg-Lys-Arg-aldehyde)", "Genome polyprotein (West Nile virus, UniProt P06935)", 154],
  ["N=C(N)NCCC[C@@H](C=O)NC(=O)[C@H](CCCCN)NC(=O)[C@H](CCCCN)NC(=O)c1ccccc1N (H-[2Abz]KKR-aldehyde)", "Genome polyprotein (West Nile virus, UniProt P06935)", 891],
  ["N=C(N)NCCC[C@@H](C=O)NC(=O)[C@H](CCCNC(=N)N)NC(=O)[C@H](CCCCN)NC(=O)Cc1ccccc1 (PhAc-Lys-Arg-Arg-aldehyde)", "Genome polyprotein (West Nile virus, UniProt P06935)", 325],
  ["N=C(N)NCCC[C@@H](C=O)NC(=O)[C@H](CCCCN)NC(=O)[C@H](CCCCN)NC(=O)Cc1ccc(-c2ccccc2)cc1", "Genome polyprotein (West Nile virus, UniProt P06935)", 32]
]}

May I ask what IC50 has been recorded for COc1cccc(CC(=O)N[C@@H](CCCCN)C(=O)N[C@@H](CCCCN)C(=O)N[C@H](C=O)CCCN=C(N)N)c1 ? 60

Using the record for N=C(N)NCCC[C@@H](C=O)NC(=O)[C@H](CCCNC(N)=O)NC(=O)[C@H](CCCCN)NC(=O)Cc1ccccc1 (PhAc-Lys-[Cit]-Arg-aldehyde) , report its IC50. 11600

Given the entry NCCCC[C@H](NC(=O)Cc1ccccc1)C(=O)N[C@@H](CCCCN)C(=O)N[C@H](C=O)Cc1c[nH]c2ccccc12 (PhAc-Lys-Lys-Trp-aldehyde) , report its measured IC50. 25700
